Biological target: Breakpoint cluster region protein (Homo sapiens); note: in the data inactive means no Kd found up to 30 µM
Sequence (P11274 whole entry): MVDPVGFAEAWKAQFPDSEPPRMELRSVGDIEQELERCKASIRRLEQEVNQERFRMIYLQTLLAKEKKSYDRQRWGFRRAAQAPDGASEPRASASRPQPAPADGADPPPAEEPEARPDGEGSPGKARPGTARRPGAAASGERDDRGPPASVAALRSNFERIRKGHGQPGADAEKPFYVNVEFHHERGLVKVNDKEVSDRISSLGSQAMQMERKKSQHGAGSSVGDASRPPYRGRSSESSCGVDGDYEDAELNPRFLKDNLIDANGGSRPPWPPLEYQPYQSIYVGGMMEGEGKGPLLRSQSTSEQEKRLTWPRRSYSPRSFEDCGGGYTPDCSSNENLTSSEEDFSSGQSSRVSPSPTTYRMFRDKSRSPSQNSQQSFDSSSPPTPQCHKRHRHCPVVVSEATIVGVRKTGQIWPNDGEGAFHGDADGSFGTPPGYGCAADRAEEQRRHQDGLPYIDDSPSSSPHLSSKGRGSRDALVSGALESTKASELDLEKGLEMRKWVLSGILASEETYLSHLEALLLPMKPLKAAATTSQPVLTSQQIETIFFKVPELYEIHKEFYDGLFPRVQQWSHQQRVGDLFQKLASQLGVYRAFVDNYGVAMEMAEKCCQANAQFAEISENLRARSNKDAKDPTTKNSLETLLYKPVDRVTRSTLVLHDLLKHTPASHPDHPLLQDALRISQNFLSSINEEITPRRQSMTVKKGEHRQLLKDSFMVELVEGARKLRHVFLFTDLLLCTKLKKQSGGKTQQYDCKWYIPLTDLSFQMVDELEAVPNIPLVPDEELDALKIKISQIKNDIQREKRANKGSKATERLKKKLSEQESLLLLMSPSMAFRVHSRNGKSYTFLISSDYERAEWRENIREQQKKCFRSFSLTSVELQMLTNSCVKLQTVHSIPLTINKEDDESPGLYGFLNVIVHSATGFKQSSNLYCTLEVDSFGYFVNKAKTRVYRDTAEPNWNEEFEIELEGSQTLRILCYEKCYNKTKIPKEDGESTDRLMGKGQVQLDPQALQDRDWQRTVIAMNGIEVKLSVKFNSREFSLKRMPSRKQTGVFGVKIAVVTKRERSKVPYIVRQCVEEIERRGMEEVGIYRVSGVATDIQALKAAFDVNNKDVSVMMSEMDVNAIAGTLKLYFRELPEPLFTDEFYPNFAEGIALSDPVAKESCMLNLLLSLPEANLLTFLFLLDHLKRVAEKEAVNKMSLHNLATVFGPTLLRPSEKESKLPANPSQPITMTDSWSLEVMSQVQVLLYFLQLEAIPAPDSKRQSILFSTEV
Calls of active or inactive are those of the source.
Just give me one of these, please: class 1 for active, class 0 for inactive

Asked: For CO[C@H]1C[C@@H]2CC[C@@H](C)[C@@](O)(O2)C(=O)C(=O)N2CCCC[C@H]2C(=O)O[C@H]([C@H](C)C[C@@H]2CC[C@@H](OP(C)(C)=O)[C@H](OC)C2)CC(=O)[C@H](C)/C=C(\C)[C@@H](O)[C@@H](OC)C(=O)[C@H](C)C[C@H](C)/C=C/C=C/C=C/1C [RIDAFOROLIMUS] , what call appears in the results of this test?
Given back: class 0

Asked: And Cc1nc(NC(=O)N2CCC[C@H]2C(N)=O)sc1-c1ccnc(C(C)(C)C(F)(F)F)c1 [ALPELISIB] ?
Given back: class 0

Asked: And Cc1cccc(-c2nn3c(c2-c2ccnc4ccc(C(N)=O)cc24)CCC3)n1 [GALUNISERTIB] ?
Given back: class 0

Asked: And Cn1cc(-c2cnc3ccc4ccc(CS(=O)(=O)NCc5ccccn5)cc4c(=O)c3c2)cn1 [MK-8033] ?
Given back: class 0

Asked: And COc1c(OCCCN2CCOCC2)ccc2c1N=C(NC(=O)c1cnc(N)nc1)N1CCN=C21 [COPANLISIB] ?
Given back: class 0

Asked: And Cc1nc(Nc2n[nH]c3c2CN(C(=O)N[C@H](CN(C)C)c2ccccc2)C3(C)C)c2sccc2n1 [PF-03758309] ?
Given back: class 1

Asked: And CC(C)c1cc(CNc2nc(Nc3cc(C4CC4)[nH]n3)cc(N3CCN(C)CC3)n2)on1 [XL-228] ?
Given back: class 1

Asked: And COc1cc(Nc2ncc3c(n2)-c2ccc(Cl)cc2C(c2c(F)cccc2OC)=NC3)ccc1C(=O)O [ALISERTIB] ?
Given back: class 0

Asked: And "C[C@H]1CNCCCN1S(=O)(=O)c1cccc2cncc(F)c12" ?
Given back: class 0

Asked: And C[C@@H](Oc1cc(-n2cnc3ccc(CN4CCN(C)CC4)cc32)sc1C(N)=O)c1ccccc1C(F)(F)F [GSK-461364] ?
Given back: class 0

Asked: And CN(C[C@@H]1COCCO1)S(=O)(=O)Nc1ccc2ccc3ncc(-c4cnn(C)c4)cc3c(=O)c2c1 [MK-2461] ?
Given back: class 0

Asked: And "Cc1nc2cc(-c3nn(C(C)C)c4ncnc(N)c34)ccc2o1" ?
Given back: class 0

Asked: And C=CC(=O)Nc1cc2c(Nc3ccc(F)c(Cl)c3)ncnc2cc1C#CC(C)(C)N1CCN(C)CC1 [AV-412 FREE BASE] ?
Given back: class 0

Asked: And CNC(=O)c1cccc2cc(Oc3ccnc4cc(OCC5(N)CC5)c(OC)cc34)ccc12 [LUCITANIB] ?
Given back: class 0

Asked: And NC(=O)c1c(OCc2c(F)cc(Br)cc2F)nsc1NC(=O)NCCCCN1CCCC1 [OSI-632] ?
Given back: class 1

Asked: And Cn1cc(-c2cnn3c(N)c(Br)c([C@@H]4CCCNC4)nc23)cn1 [SCH-900776] ?
Given back: class 0

Asked: And CCn1cc(-c2ccnc3[nH]c(-c4cccc(CN(C)C)c4)cc23)c(-c2ccc(NC(=O)N(C)C)cc2)n1 [GSK-1070916] ?
Given back: class 0

Asked: And C#Cc1cccc(Nc2ncnc3cc(OC)c(OCCCCCCC(=O)NO)cc23)c1 [CUDC-101] ?
Given back: class 0

Asked: And CNC(=O)c1cc(Oc2ccc(NC(=O)Nc3cc(C(C)(C)C)nn3-c3ccc4ncccc4c3)c(F)c2)ccn1 [REBASTINIB] ?
Given back: class 1

Asked: And COc1cc([C@@H]2c3cc4c(cc3[C@H](O)[C@H]3COC(=O)[C@@H]23)OCO4)cc(OC)c1OC [AXL-1717] ?
Given back: class 0

Values compiled from ChEMBL document CHEMBL3991601.
